# Study target: lysozyme (Gallus gallus, UniProt P00698)
# Sequence (P00698 19-147): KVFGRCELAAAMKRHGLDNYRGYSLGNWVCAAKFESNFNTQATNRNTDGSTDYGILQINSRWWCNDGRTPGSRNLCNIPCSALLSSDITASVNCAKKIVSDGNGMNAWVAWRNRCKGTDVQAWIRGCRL
Endpoint label: IC50 (mM)
Give the value in mM but do not write mM after it.

Query block: Param readout= IC50; system= lysozyme (Gallus gallus, UniProt P00698); entry= C=CC(=O)OC[C@H]1OC(O)[C@H](NC(C)=O)[C@@H](O)[C@@H]1O (stereo partly shown) ; returns value.
Result block: 14.8
